# systemTested: ZFP SBS#684 (synthetic)
# Sequence (chain, as listed by the source): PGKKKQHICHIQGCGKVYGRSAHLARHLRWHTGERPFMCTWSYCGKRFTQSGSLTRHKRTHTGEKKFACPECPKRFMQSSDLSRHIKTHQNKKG
# assayOverview: EMSA
# runConditions: tags: MBP fusion
valueType: Kd (nM)
Field format: number, assumed nM, no unit text.

Can you share its Kd? I mean this binder: GCTGCAGGAG (dsDNA) DNA 1: GCTGCAGGAG DNA 2: CTCCTGCAGC 850
